Just for reference, paper PMC10252614 is where these values come from.

Target: human BChE (hBChE) (Homo sapiens, UniProt P06276)
Construct: made in house
Sequence (P06276 29-602): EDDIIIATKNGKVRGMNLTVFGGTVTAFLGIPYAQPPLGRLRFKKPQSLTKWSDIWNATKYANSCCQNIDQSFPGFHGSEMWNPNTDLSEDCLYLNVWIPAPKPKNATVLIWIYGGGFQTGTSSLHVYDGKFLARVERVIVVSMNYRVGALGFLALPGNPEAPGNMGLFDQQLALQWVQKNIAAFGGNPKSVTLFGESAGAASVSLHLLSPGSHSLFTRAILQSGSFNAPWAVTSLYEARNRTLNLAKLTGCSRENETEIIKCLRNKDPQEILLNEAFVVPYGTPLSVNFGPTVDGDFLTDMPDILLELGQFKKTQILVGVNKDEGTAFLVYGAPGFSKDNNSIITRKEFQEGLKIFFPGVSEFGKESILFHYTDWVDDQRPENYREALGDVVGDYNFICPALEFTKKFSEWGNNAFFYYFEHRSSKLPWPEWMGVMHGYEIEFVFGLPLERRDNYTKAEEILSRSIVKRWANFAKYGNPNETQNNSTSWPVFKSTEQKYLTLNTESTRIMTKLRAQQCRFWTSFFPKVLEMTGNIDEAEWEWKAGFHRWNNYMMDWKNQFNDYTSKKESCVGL
Test: hBChE inhibition, modified Ellman's method
Type: biochemical
Conditions: 10^-6 M
Hi there, I'd appreciate the recorded inhibition at 1 µM for every entry that follows.
I only need the number, in %, no unit after it.

Need inhibition at 1 µM, item C#CCN(C)c1nc(NCC)c2ccccc2n1
0

Try the compound C#CCN(C)c1nc(NC2CCCCC2)c2ccc(Cl)cc2n1
3

Try the compound C#CCN(C)c1nc(NCCOC)c2ccccc2n1
1

Try the compound C#CCN(C)c1nc(NC(C)C)c2cc(OC)ccc2n1
2

Try the compound C#CCN(C)c1nc(N)c2cc(OC)ccc2n1
1

Try the compound COc1ccc2nc3c(c(N)c2c1)CCCC3 [7-MEOTA, reference compound]
18

Try the compound C#CCN(C)c1nc(NC(C)C)c2ccc(Cl)cc2n1
3

Try the compound C#CCN(C)c1nc(NCC)c2ccc(Cl)cc2n1
0

Try the compound C#CCN(C)c1nc(NC2CC2)c2ccccc2n1
2

Try the compound C#CCN(C)c1nc(NCC)c2cc(OC)ccc2n1
2

Try the compound C#CCN(C)c1nc(NC(C)C)c2ccccc2n1
1

Try the compound C#CCN(C)c1nc(NC2CC2)c2ccc(Cl)cc2n1
0

Try the compound C#CCN(C)c1nc(NC)c2ccc(Cl)cc2n1
2

Try the compound C#CCN(C)c1nc(N)c2ccccc2n1
0

Try the compound C#CCN(C)c1nc(NCCOC)c2cc(OC)ccc2n1
1

Try the compound C#CCN(C)c1nc(N)c2ccc(Cl)cc2n1
2

Try the compound C#CCN(C)c1nc(NC2CCCCC2)c2cc(OC)ccc2n1
2

Try the compound C#CCN(C)c1nc(NCCCC)c2ccc(Cl)cc2n1
0

Try the compound C#CCN(C)c1nc(NCCCC)c2ccccc2n1
4

Try the compound C#CCN(C)c1nc(NCCCC)c2cc(OC)ccc2n1
1

Try the compound C#CCN(C)c1nc(NC)c2ccccc2n1
3

Try the compound C#CCN(C)c1nc(NC2CC2)c2cc(OC)ccc2n1
0

Try the compound C#CCN(C)c1nc(NC2CCCCC2)c2ccccc2n1
0

Try the compound C#CCN(C)c1nc(NCCOC)c2ccc(Cl)cc2n1
2

Try the compound C#CCN(C)c1nc(NC)c2cc(OC)ccc2n1
1

----------
Hi there, I'd appreciate the recorded Dehydrogenase Activity (% of Control) for every entry that follows.
System: SH-SY5Y cells
Test: dehydrogenase activity, WST-1 test
Type: cell-based, human
Settings: 100 µM, 24 h, mean ± SD

Need Dehydrogenase Activity (% of Control), item C#CCN(C)c1nc(NCCCC)c2ccccc2n1
49 ± 4 % of Control

Try the compound C#CCN(C)c1nc(NCCCC)c2ccc(Cl)cc2n1
48 ± 9 % of Control

Try the compound C#CCN(C)c1nc(N)c2cc(OC)ccc2n1
128 ± 4 % of Control

Try the compound C#CCN(C)c1nc(NC2CCCCC2)c2ccc(Cl)cc2n1
22 ± 7 % of Control

Try the compound C#CCN(C)c1nc(NC2CCCCC2)c2ccccc2n1
49 ± 2 % of Control

----------
Assay: in vitro
Conditions: human
readoutLabel: IC50 at 24 h

Need IC50 at 24 h, item Nc1c2c(nc3ccccc13)CCCC2 [THA, tacrine, reference compound]
122 µM
